biological target: T1, rat neuropeptide FF receptor (NPFF2) (rat, UniProt Q9EQD2 1-417); test: radioligand binding to cloned rat NPFF2, as told in the discussion
T1 construct: Full-length cloned receptor; Also the native receptor in rat brain sections (autoradiography); also called rat NPFF2
T1 sequence (Q9EQD2 whole entry): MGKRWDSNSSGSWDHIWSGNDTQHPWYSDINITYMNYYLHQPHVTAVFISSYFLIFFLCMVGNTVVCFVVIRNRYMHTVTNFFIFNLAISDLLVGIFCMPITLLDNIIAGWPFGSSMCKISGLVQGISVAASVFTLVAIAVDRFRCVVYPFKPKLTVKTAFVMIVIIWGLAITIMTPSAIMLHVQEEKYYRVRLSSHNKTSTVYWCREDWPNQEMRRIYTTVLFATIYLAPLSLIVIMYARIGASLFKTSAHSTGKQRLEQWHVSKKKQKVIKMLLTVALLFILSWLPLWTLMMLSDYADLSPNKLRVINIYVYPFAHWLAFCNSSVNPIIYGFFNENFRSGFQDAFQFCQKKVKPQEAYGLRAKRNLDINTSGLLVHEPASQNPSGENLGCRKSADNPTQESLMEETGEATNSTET
Non-standard residues stand in square brackets, D forms with d. No end group written: not given here. *: point of attachment. NMeF = CN[C@@H](Cc1ccccc1)C(=O)O; 125I = [125I]*
measurementType: Kd (nM)

>>> reading("[dY](125I)L[NMeF]QPQRF-NH2 [[^125I][D-Tyr^1-(NMe)Phe^3]NPFF]")
0.22

Every entry's value here was drawn from patent US20050089937A1.
